target: adrenergic, beta-2 (human) (Homo sapiens); construct: endogenous in cells; host or cells: HL-60 (human promyelocytic leukemia cells); experiment: adrenergic, beta-2 (human) binding assay; HL-60 cells, isoproterenol, EIA read-out; assay type: cell-based; conditions: Table 1, 300 μM IBMX, 100 nM isoproterenol, 20 minutes at room temperature
Sequence (P07550 whole entry): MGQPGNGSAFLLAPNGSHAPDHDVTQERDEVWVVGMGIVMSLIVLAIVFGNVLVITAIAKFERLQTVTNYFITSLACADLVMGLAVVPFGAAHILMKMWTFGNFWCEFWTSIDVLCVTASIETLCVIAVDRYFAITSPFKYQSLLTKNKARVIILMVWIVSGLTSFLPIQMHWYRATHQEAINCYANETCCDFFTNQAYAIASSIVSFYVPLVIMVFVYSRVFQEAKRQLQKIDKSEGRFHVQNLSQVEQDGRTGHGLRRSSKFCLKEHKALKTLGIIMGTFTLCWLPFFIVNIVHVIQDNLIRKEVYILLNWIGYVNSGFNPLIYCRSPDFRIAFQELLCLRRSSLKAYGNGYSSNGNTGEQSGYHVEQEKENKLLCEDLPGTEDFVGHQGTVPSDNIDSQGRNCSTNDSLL
EXPERIMENTAL_ENDPOINT: IC50 (nM)

Examples with their reported IC50 follow.
COMPOUND: COCCOCCOCCOCC(=O)O[C@@H](CNC(C)C)COc1cccc2ccccc12 [Propranolol Conjugate F]
ASSAY_SYSTEM: adrenergic, beta-2 (human) (Homo sapiens)
IC50 [nM]: 1660
//
COMPOUND: COCCOCCOCCO[C@@H](CNC(C)C)COc1cccc2ccccc12 [Propranolol Conjugate A]
ASSAY_SYSTEM: adrenergic, beta-2 (human) (Homo sapiens)
IC50 [nM]: 112

(a) COCCOCCOCCOCCOCCOCCOCCOCC(=O)O[C@@H](CNC(C)C)COc1cccc2ccccc12 [Propranolol Conjugate E]
(b) COCCOCCOCCOCC(=O)O[C@H](COc1cccc2ccccc12)CN(C(=O)COCCOCCOCCOC)C(C)C [Propranolol Conjugate B]
Identify the entry with the larger IC50. Options: a and b Use the label to indicate which entry you chose. b
(b: 13200 nM, a: 1680 nM)

The reported numbers originate from patent US10251959B2.
